Target: T1, EsCas13d, nuclease-dead (Eubacterium siraeum, UniProt B0MS50, R295A;H300A;R849A;H854A)
T1 sequence: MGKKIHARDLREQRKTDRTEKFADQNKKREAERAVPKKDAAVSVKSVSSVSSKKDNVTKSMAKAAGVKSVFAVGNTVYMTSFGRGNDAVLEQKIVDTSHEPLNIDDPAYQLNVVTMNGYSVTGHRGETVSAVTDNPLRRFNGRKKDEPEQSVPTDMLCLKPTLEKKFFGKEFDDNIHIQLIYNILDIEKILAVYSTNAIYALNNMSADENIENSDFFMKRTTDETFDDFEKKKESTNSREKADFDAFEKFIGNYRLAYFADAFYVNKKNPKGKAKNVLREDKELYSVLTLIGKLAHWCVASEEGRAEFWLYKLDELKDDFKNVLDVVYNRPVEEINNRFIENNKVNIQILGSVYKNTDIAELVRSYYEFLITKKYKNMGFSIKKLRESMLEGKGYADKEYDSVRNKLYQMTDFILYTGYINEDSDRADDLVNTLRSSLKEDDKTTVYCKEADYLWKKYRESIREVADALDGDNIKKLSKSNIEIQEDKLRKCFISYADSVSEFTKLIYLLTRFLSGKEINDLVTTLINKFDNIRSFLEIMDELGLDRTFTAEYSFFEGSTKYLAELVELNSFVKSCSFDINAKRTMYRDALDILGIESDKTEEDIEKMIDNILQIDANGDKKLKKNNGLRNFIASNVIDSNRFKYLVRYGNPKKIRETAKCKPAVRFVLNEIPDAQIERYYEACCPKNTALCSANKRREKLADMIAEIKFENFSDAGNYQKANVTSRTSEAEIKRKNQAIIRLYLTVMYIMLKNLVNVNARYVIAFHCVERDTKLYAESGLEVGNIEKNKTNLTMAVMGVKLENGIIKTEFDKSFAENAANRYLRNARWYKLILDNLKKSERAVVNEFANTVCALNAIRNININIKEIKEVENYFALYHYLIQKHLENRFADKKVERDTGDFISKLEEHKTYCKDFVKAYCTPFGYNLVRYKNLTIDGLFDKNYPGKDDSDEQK
Assay: crRNA (strand 1, pre-loaded); Mg2+; 40 mM Tris-HCl pH 7.5, 150 mM NaCl, 6 mM MgCl2, 1 mM DTT, 0.1% Tween-20, 0.2 mg/ml BSA; 25 C; 10 min per concentration, then washed
Conditions: tags: His6-TwinStrep-SUMO cleaved; N-terminal SNAP kept (SNAP-Surface 488); label: 3' end held by stalled T7 RNA polymerase
metric: pKd
Just the number, please; pKd means minus log10 of the concentration in mol/L.

These recorded examples may help you get a feel for the data.
# binder, pKd
data = [
    ("target 3 C1A,U8A (mixed) RNA 1: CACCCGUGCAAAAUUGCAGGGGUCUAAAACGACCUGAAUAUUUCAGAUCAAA RNA 2: GGGAAUGGAUCCACAUCUACGAAUUCGUUUUUGAUCUGAAAUAAUCAGGUAUGCAGAUCGGAAGAGCACACGU", 7.17),
    ("target 1 C6A,G12U (mixed) RNA 1: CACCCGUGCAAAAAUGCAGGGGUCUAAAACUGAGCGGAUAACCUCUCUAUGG RNA 2: GGGAAUGGAUCCACAUCUACGAAUUCGUACCAUAGAGAGUUUAUCAGCUCACCGAGAUCGGAAGAGCACACGU", 7.97),
    ("target 1 G15U,G17C (mixed) RNA 1: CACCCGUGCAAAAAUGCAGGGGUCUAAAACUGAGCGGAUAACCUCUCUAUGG RNA 2: GGGAAUGGAUCCACAUCUACGAAUUCGUACCAUACAUAGGUUAUCCGCUCACCGAGAUCGGAAGAGCACACGU", 7.46),
    ("target 1 MT 5'PFS GUG 3'PFS CUU (mixed) RNA 1: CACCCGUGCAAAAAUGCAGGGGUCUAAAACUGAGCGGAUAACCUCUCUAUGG RNA 2: GGGAAUGGAUCCACAUCUACGAAUUCGUGCCAUAGAGAGGUUAUCCGCUCACUUAGAUCGGAAGAGCACACGU", 7.99),
    ("target 1 C2U,C4A (mixed) RNA 1: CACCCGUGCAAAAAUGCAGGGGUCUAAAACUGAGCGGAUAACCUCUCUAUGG RNA 2: GGGAAUGGAUCCACAUCUACGAAUUCGUACCAUAGAGAGGUUAUCCGAUUACCGAGAUCGGAAGAGCACACGU", 8.17),
]

Given the entry target 1 MT 5'PFS GGC 3'PFS CUG (mixed) RNA 1: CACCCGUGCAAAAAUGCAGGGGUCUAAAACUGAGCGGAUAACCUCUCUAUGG RNA 2: GGGAAUGGAUCCACAUCUACGAAUUCGGCCCAUAGAGAGGUUAUCCGCUCACUGAGAUCGGAAGAGCACACGU , report its measured pKd. 7.76

Given the entry target 1 MT 5'PFS UAA 3'PFS AAA (mixed) RNA 1: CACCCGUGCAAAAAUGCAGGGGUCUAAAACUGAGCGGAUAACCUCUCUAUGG RNA 2: GGGAAUGGAUCCACAUCUACGAAUUCUAACCAUAGAGAGGUUAUCCGCUCAAAAAGAUCGGAAGAGCACACGU , report its measured pKd. 7.33

Given the entry target 3 insU 3' of 4,insU 3' of 4 (mixed) RNA 1: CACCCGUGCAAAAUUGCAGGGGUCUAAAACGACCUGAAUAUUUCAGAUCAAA RNA 2: GGGAAUGGAUCCACAUCUACGAAUUCGUUUUUGAUCUGAAAUAUUCAGUUGUCUGCAGAUCGGAAGAGCACACGU , report its measured pKd. 7.84
